Listed below are compounds with pIC50 for UniProtKB O75907, each taken from published literature.
pIC50: −log10 of the molar value.

// known answers, use as guide
compound	target_of_assay	recorded_metric	obs_value
CC1(C)Oc2ncnc(N)c2N=C1c1ccc([C@H]2CC[C@H](NS(C)(=O)=O)CC2)cc1	UniProtKB O75907	pIC50	7.00 to 8.00
CC(C)N(NC(=O)c1cccc(F)c1)C(=O)/C=C/c1cn(C(=O)OC(C)(C)C)c2cc(F)ccc12	UniProtKB O75907	pIC50	< 4.00
O=C(O)CCc1ccc(-c2csc3c(-c4ccc(NC(=O)Nc5ccc(-c6nn[nH]n6)cc5)cc4)ncnc23)cc1	UniProtKB O75907	pIC50	> 9.00

*Q* GET /values?readout=pIC50&system=UniProtKB O75907&item= CC1CCCN(c2nc(C(F)(F)F)c(C(=O)Nc3ccc(N4CCN(C(=O)[C@H](O)C5CCCCC5)CC4)nc3)o2)C1 (stereo partly shown)
*A* 7.00 to 7.96

*Q* GET /values?readout=pIC50&system=UniProtKB O75907&item= Cc1nc(N)c2c(n1)OC(C)(C)C(c1ccc([C@H]3CC[C@H](C[S+]([O-])CC(=O)O)CC3)cc1)=N2 (stereo partly shown)
*A* 7.00 to 8.00

*Q* GET /values?readout=pIC50&system=UniProtKB O75907&item= Cc1ccc(Nc2ccc(-c3ccc4c(c3)CCC(CC(=O)O)(CC(F)(F)F)C4=O)nc2)cc1 (single isomer, unassigned)
*A* 6.30 to 7.00

*Q* GET /values?readout=pIC50&system=UniProtKB O75907&item= `CC1(C)Oc2ncnc(N)c2N=C1c1ccc2c(c1)CCC[C@]21CC[C@@H](CC(=O)O)CC1`
*A* > 8.00

* * *

Listed below are compounds with IC50 for human DGAT1 (Homo sapiens), each taken from published literature.

// known answers, use as guide
compound	obs_value
CN(C)C(=O)C=C1CCC(c2ccc(C3=Nc4c(N)ncnc4OC3(C)C)cc2)CC1 (centres unmarked)	10 to 100 nM
CC(C)(NC(=O)C[C@H]1CC[C@H](c2ccc(C3Nc4c(N)ncnc4OC3(C)C)cc2)CC1)C(=O)O (some centres unmarked)	10 to 100 nM
O=C(NCCNC(=O)c1cn(-c2ccccc2)nc1C(F)(F)F)c1ccc(-c2ncon2)nc1	100 to 1000 nM
CC1(C)Oc2ncnc(N)c2N=C1c1ccc([C@H]2CC[C@H](CC(=O)N3CCN(CCO)CC3)CC2)cc1	10 to 100 nM
Cc1nc(N)c2c(n1)OC(C)(C)C(c1ccc([C@H]3CC[C@H](CSC(C)(C)C(=O)O)CC3)cc1)=N2	10 to 100 nM

*Q* GET /values?readout=IC50&system=human DGAT1 (Homo sapiens)&item= CC1(C)Oc2ncnc(N)c2NC1c1ccc(C2CCCCC2)cc1 (centres unmarked)
*A* > 100 nM

*Q* GET /values?readout=IC50&system=human DGAT1 (Homo sapiens)&item= `COc1ccc(C)cc1NC(=O)Nc1ccc([C@H]2CC[C@](O)(CC(=O)O)CC2)cc1`
*A* 1300 nM

*Q* GET /values?readout=IC50&system=human DGAT1 (Homo sapiens)&item= `Cc1nc(N)c2c(n1)OC(C)(C)C(c1ccc([C@H]3CC[C@H](C(=O)NS(C)(=O)=O)CC3)cc1)=N2`
*A* 10 to 100 nM

*Q* GET /values?readout=IC50&system=human DGAT1 (Homo sapiens)&item= `Cc1ncc(C[C@H]2CC[C@H](c3ccc(C4=Nc5c(N)ncnc5OC4(C)C)cc3)CC2)[nH]1`
*A* 10 to 100 nM

*Q* GET /values?readout=IC50&system=human DGAT1 (Homo sapiens)&item= `Cc1nc(N)c2c(n1)OC(C)(C)C(c1ccc([C@H]3CC[C@H](CNC(=O)N4CCOCC4)CC3)c(Cl)c1)=N2`
*A* 10 to 100 nM

*Q* GET /values?readout=IC50&system=human DGAT1 (Homo sapiens)&item= `O=C(Nc1ccc(N2CCC(OCc3ccccc3)CC2)nc1)c1oc(-c2ccccc2)nc1C(F)(F)F`
*A* 11 to 100 nM

*Q* GET /values?readout=IC50&system=human DGAT1 (Homo sapiens)&item= `Cc1nc(N)c2c(n1)OC(C)(C)C(c1ccc([C@H]3CC[C@H](C(=O)NC(C)(C)CO)CC3)cc1)=N2`
*A* 10 to 100 nM

*Q* GET /values?readout=IC50&system=human DGAT1 (Homo sapiens)&item= `O=C(Nc1ccc(N2CCN(C(=O)Cc3ccccc3O)CC2)nc1)c1oc(N2CCC(c3ccccc3)CC2)nc1C(F)(F)F`
*A* 101 to 500 nM

*Q* GET /values?readout=IC50&system=human DGAT1 (Homo sapiens)&item= `CC1(C)Oc2ncnc(N)c2N=C1c1ccc([C@H]2CC[C@H](C(=O)N3C[C@@H](O)[C@@H](O)C3)CC2)cc1`
*A* 10 to 100 nM

* * *

Listed below are compounds with IC50 for human DGAT1 (Homo sapiens), each taken from published literature.

// known answers, use as guide
compound	IC50
CC1CCCN(c2nc(C(F)(F)F)c(C(=O)Nc3ccc(N4CCC(OCc5ccccc5C(=O)O)CC4)nc3)o2)C1 (centres unmarked)	11 to 100 nM
Cc1ccc(Nc2ccc(-c3ccc4c(c3)CCC(CC(=O)O)(CC(F)(F)F)C4=O)nc2)nc1 (single isomer, unassigned)	100 to 500 nM
CN1CCN(C(=O)CC[C@H]2CC[C@H](c3ccc(C4=Nc5c(N)ncnc5OC4(C)C)cc3)CC2)CC1	10 to 100 nM
O=C(Nc1ccc(N[C@H]2CCN(C(=O)Nc3ccccc3F)C2)nc1)c1oc(N2CCC(c3ccccc3)CC2)nc1C(F)(F)F	101 to 500 nM
CCCNC(=O)CC[C@H]1CC[C@H](c2ccc(C3=Nc4c(N)ncnc4OC3(C)C)cc2)CC1	10 to 100 nM
CN1CCN(c2ccc(NC(=O)Nc3ccc(-c4ncnc5c(-c6ccc(CCC(=O)O)cc6)csc45)cc3)cc2)CC1	< 20 nM
Nc1cccc2c1N=C(c1ccc(Br)cc1)CO2	> 100 nM

*Q* GET /values?readout=IC50&system=human DGAT1 (Homo sapiens)&item= CC1(C)Oc2ncnc(N)c2N=C1c1ccc(C2CCC(C(O)C(=O)O)CC2)cc1 (centres unmarked)
*A* 10 to 100 nM

* * *

pIC50: −log10 of the molar value.
Listed below are compounds with pIC50 for human DGAT1 (Homo sapiens, UniProt O75907), each taken from published literature.

compound	pIC50
CC1(C)Oc2ncnc(N)c2N=C1c1ccc([C@H]2CC[C@H](CCN3CCC(Cc4ccccc4)CC3)CC2)cc1	< 7.00
Cc1nc(N)c2c(n1)OC(C)(C)C(c1ccc([C@H]3CC[C@H](CNC(=O)CO)CC3)cc1)=N2	7.00 to 8.00
Cc1ccc(S(=O)(=O)NC[C@H]2CC[C@H](c3ccc(C4=Nc5c(N)ncnc5OC4(C)C)cc3)CC2)cc1	7.00 to 8.00

*Q* GET /values?readout=pIC50&system=human DGAT1 (Homo sapiens, UniProt O75907)&item= `CCOC(=O)c1c(C(=O)OCC)c2c(-c3ccccc3)cc(N3CCOCC3)nn2c1C1CC1`
*A* < 6.30

*Q* GET /values?readout=pIC50&system=human DGAT1 (Homo sapiens, UniProt O75907)&item= `Nc1ncnc2c1N=C(c1ccncc1)CO2`
*A* < 7.00

*Q* GET /values?readout=pIC50&system=human DGAT1 (Homo sapiens, UniProt O75907)&item= O=C(O)CC1(CC(F)(F)F)CCc2cc(-c3cnc(Nc4cccc(Cl)c4)s3)ccc2C1=O (single isomer, unassigned)
*A* 6.30 to 7.00

*Q* GET /values?readout=pIC50&system=human DGAT1 (Homo sapiens, UniProt O75907)&item= `CC(=O)Nc1ccc(C(=O)NCCNC(=O)c2cn(-c3ccccc3)nc2C(F)(F)F)cn1`
*A* 5.00 to 6.00

*Q* GET /values?readout=pIC50&system=human DGAT1 (Homo sapiens, UniProt O75907)&item= `COc1ccc2[nH]c(C[C@H]3CC[C@H](c4ccc(C5=Nc6c(N)ncnc6OC5(C)C)cc4)CC3)nc2c1`
*A* 7.00 to 8.00

* * *

Listed below are compounds with IC50 for human DGAT1 (Homo sapiens, UniProt O75907), each taken from published literature.

// known answers, use as guide
compound	target_of_assay	IC50
O=C(Nc1ccc(N2CCN(c3nc4ccccc4o3)CC2)nc1)c1oc(N2CCC(c3ccccc3)CC2)nc1C(F)(F)F	human DGAT1 (Homo sapiens, UniProt O75907)	101 to 500 nM
O=C(O)c1ccccc1NC(=O)N1CCN(c2ccc(NC(=O)c3oc(N4CCC(c5ccccc5)CC4)nc3C(F)(F)F)cn2)CC1	human DGAT1 (Homo sapiens, UniProt O75907)	11 to 100 nM
CN(CC[C@H]1CC[C@H](c2ccc(C3=Nc4c(N)ncnc4OC3(C)C)cc2)CC1)C(=O)CO	human DGAT1 (Homo sapiens, UniProt O75907)	10 to 100 nM
CC1(C)Oc2nc(C(F)(F)F)nc(N)c2N=C1c1ccc2c(c1)CCC21CCC(C(C)(C)C(=O)O)CC1 (centres unmarked)	human DGAT1 (Homo sapiens, UniProt O75907)	10 to 100 nM

*Q* GET /values?readout=IC50&system=human DGAT1 (Homo sapiens, UniProt O75907)&item= `CC1(C)Oc2ncnc(N)c2N=C1c1ccc(C2CCN(C(=O)C(=O)O)CC2)cc1`
*A* 10 to 100 nM
